Biological target: Dual specificity protein phosphatase 3 (Homo sapiens, UniProt P51452)
Sequence (P51452 whole entry): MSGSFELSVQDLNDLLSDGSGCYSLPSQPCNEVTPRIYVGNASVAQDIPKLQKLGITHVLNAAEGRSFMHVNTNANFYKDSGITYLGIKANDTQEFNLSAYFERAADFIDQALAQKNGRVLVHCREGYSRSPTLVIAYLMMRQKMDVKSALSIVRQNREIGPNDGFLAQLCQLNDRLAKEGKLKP
pKi: −log10 of the molar value.
Assign rule met whenever pKi does not fall below 2; assign rule not met whenever it does.

Check out these entries, answers already filled in.
molecule=O=P(O)(O)COc1cccc2c1ccc1ccccc12 class="rule met"
molecule=O=P(O)(O)COc1ccc2ccccc2c1 class="rule met"
molecule=O=P(O)(O)COc1cccc2ccccc12 class="rule met"
molecule=O=P(O)(O)COc1ccc(Cc2ccc(O)cc2)cc1 class="rule met"

Proceed to the following item.
Would you say O=P(O)(O)COc1ccccc1 [PHENOXYMETHYLPHOSPHONATE] shows pKi at minimum 2?
rule not met

* * *

Target: Tyrosine-protein phosphatase non-receptor type 1 (Homo sapiens, UniProt P18031)
Sequence (P18031 whole entry): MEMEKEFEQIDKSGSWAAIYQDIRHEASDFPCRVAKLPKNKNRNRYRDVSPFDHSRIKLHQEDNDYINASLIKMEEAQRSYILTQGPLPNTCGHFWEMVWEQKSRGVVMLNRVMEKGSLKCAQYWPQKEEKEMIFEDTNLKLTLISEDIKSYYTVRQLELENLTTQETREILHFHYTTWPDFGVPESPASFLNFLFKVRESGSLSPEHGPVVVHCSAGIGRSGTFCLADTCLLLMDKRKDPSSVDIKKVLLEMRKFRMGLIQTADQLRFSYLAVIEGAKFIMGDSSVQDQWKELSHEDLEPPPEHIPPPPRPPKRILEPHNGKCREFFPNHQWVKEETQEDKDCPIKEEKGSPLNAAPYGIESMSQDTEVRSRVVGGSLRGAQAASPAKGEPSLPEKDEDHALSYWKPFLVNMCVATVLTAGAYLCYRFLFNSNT
ENDPOINT: pKi
Recall that pKi is obtained by taking minus log10 of the concentration measured in molar.

Consider the worked cases shown below.
compound=O=C(O)Cc1ccc(OCP(=O)(O)O)cc1 endpoint=pKi reading=2.96
compound=O=P(O)(O)COc1ccc(Cc2ccc(O)cc2)cc1 endpoint=pKi reading=4.33
compound=O=P(O)(O)COc1cccc2ccccc12 endpoint=pKi reading=2.89

Using the record for O=P(O)(O)COc1ccccc1 [PHENOXYMETHYLPHOSPHONATE] , state its measured pKi.
2.48
